Test system: HPPD polypeptides (wild-type SEQ ID NO:1 and mutants)
CONDITIONS_USED: in the presence of mesotrione (MST), 60 μM inhibitor, high substrate concentration; kapp normalized to kapp without inhibitor
Give Residual activity for every item shown.
Number in %, nothing else.

Exercise: Please list Residual activity recorded for the molecule 31 (protein, mutant HPPD polypeptide) MADLYENPMGLMGFEFIEFASPTPGTLEPIFEIMGFTKVATHRSKNVHLYRQGEINLILNNEPNSIASYFAAEHGPSVCGMAFRVKDSQKAYNRALELGAQPIHIDTGPMELNLPAIKGIGGAPLYLIDRFGEGSSIYDIDFVYLEGVERNPVGAGLKVIDHLTHNVYRGRMVYWANFYEKLFNFREARYFDIKGEYTGLTSKAMSAPDGMIRIPLNEESSKGAGQIEEFLMQFNGEGIQHVAFLTDDLVKTWDALKKIGMRFMTAPGDEYYEMLEGRLPDHGEPVDQLQARGILLDGSSVEGDKRLLLQIFSETLMGPVFFEFIQRKGDDGFGPHSFKVLFESVERDQVRRGVLTAD
Solution: 83

Exercise: Please list Residual activity recorded for the molecule 21 (protein, mutant HPPD polypeptide) MADLYENPMGLMGFEFIEFASPTPGTLEPIFEIMGFTKVATHRSKNVHLYRQGEINLILNNEPNSIASYFAAEHGPSVCGMAFRVKDSQKAYNRALELGAQPIHIDTGPMELNLPAIKGIGGAPLYLIDRFGEGSSIYDIDFVYLEGVERNPVGAGLKVIDHLTHNVYRGRMVYWANFYEKLFNFREARYFDIKGEYTGLTSKAMSAPDGMIRIPLNEESSKGAGQIEEFLMQFNGEGIQHVAFLTDDLVKTWDALKKIGMRFMTAPPDTYYEMLEGRLPDHGEPVDQLQARGILLDGSSVEGDKRLLLQIFSETLMGPVFFEFIQRKGDDGFGPHSFKALFESIERDQVRRGVLTAD
Solution: 62
